Just for reference, paper PMC7316778 is where these values come from.

Task for the reader: assign each of the following substances its reported Relative phosphorylation (% of highest signal).
Assay System: FES^S700C (Homo sapiens, UniProt P07332, S700C)
Sequence (P07332 448-822 S700C): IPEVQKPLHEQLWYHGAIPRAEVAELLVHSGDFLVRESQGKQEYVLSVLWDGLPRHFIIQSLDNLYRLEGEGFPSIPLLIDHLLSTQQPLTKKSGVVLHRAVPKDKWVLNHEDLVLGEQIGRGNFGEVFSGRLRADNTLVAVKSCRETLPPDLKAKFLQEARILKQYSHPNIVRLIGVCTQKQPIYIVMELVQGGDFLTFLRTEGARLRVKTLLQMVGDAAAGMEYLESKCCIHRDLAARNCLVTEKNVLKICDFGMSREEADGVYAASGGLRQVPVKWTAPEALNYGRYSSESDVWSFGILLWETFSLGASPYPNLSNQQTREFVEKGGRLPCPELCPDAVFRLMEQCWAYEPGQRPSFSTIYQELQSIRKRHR
Assay Details: PamChip microarray peptide phosphorylation
Type: biochemical
Parameters: human FES cDNA encoding residues 448–822 or human FER cDNA encoding residues 448–820 was amplified by PCR; made in house; host or cells: E. coli BL21(DE3), co-expressing YopH phosphatase
Applied Conditions: peptide substrate phosphorylated by FES - S700C

Query: Notebook entry, FES^S700C (Homo sapiens, UniProt P07332, S700C) assay: Relative phosphorylation (% of highest signal) of ZAP70_485_497 (ALGADDSYYTARS; UniProt P43403 485-497, looked up, fragment) = ?
Result: 7.2 % of highest signal

Query: What do you get for VGFR3_1061_1073 (DIYKDPDYVRKGS; UniProt P35916 1061-1073, looked up, fragment) ?
Result: 0.1 % of highest signal

Query: What do you get for NTRK2_509_521 (PVIENPQYFGITN; UniProt Q16620 509-521, looked up, fragment) ?
Result: -1.0 % of highest signal

// for each substance in input: emit Relative phosphorylation (% of highest signal)
1. VGFR2_1046_1058 (DFGLARDIYKDPD; UniProt P35968 1046-1058, looked up, fragment)
2. STAT1_694_706 (DGPKGTGYIKTEL; UniProt P42224 694-706, looked up, fragment)

Result:
1. 2.1 % of highest signal
2. -0.9 % of highest signal

// for each substance in input: emit Relative phosphorylation (% of highest signal)
1. EPHA2_581_593 (QLKPLKTYVDPHT; UniProt P29317 581-593, looked up, fragment)
2. EPOR_361_373 (SEHAQDTYLVLDK; UniProt P19235 361-373, looked up, fragment)

Result:
1: 0.144 % of highest signal; 2: 5.7 % of highest signal

###

Assay System: FES^S700C (Homo sapiens, UniProt P07332, S700C)
Assay Details: In vitro TR-FRET kinase assay
Format: biochemical
Set-up: human FES cDNA encoding residues 448–822 or human FER cDNA encoding residues 448–820 was amplified by PCR; made in house; host or cells: E. coli BL21(DE3), co-expressing YopH phosphatase
Applied Conditions: FES S700C; log[inhibitor] (M) = -5; mean, n=3
Observed Property: Residual activity (%)
Numbers only, in %.

Query: // returns reported Residual activity (%) for input CCC(=O)Nc1ccccc1Nc1nc(Nc2ccccc2OC)ncc1Cl [Supplementary Figure 1f]
Result: 51.0323

Query: What do you get for COc1ccccc1Nc1ncc(Cl)c(Nc2ccccc2S(=O)(=O)C(C)C)n1 [Supplementary Figure 1c] ?
Result: 0.2233

Query: What do you get for C=CC(=O)Nc1ccccc1Nc1nc(Nc2ccccc2OC)ncc1Cl [Supplementary Figure 1e] ?
Result: 5.657

---
Query: // returns reported Residual activity (%) for input C=CC(=O)Nc1cccc(Nc2nc(Nc3ccccc3OC)ncc2Cl)c1 [Supplementary Figure 1d]
Result: -0.2497

###

Assay System: FES^S700C (Homo sapiens, UniProt P07332, S700C)
Assay Details: In vitro TR-FRET kinase assay
Format: biochemical
Set-up: human FES cDNA encoding residues 448–822 or human FER cDNA encoding residues 448–820 was amplified by PCR; made in house; host or cells: E. coli BL21(DE3), co-expressing YopH phosphatase
Applied Conditions: FES S700C; log[inhibitor] (M) = -8; mean, n=3
Observed Property: Residual activity (%)
Lab note: write values as number then unit, every time.

Query: Notebook entry, FES^S700C (Homo sapiens, UniProt P07332, S700C) assay: Residual activity (%) of COc1ccccc1Nc1ncc(Cl)c(Nc2ccccc2S(=O)(=O)C(C)C)n1 [Supplementary Figure 1c] = ?
Result: 66.7428%

Query: What do you get for CCC(=O)Nc1ccccc1Nc1nc(Nc2ccccc2OC)ncc1Cl [Supplementary Figure 1f] ?
Result: 101.749%

Query: What do you get for C=CC(=O)Nc1ccccc1Nc1nc(Nc2ccccc2OC)ncc1Cl [Supplementary Figure 1e] ?
Result: 98.0581%

Kindly review the next compound as well.
Query: Notebook entry, FES^S700C (Homo sapiens, UniProt P07332, S700C) assay: Residual activity (%) of C=CC(=O)Nc1cccc(Nc2nc(Nc3ccccc3OC)ncc2Cl)c1 [Supplementary Figure 1d] = ?
Result: 11.6016%

###

Assay System: FES^S700C (Homo sapiens, UniProt P07332, S700C)
Assay Details: PamChip microarray peptide phosphorylation
Format: biochemical
Parameters: human FES cDNA encoding residues 448–822 or human FER cDNA encoding residues 448–820 was amplified by PCR; made in house; host or cells: E. coli BL21(DE3), co-expressing YopH phosphatase
Applied Conditions: peptide substrate phosphorylated by FES - S700C
Task for the reader: assign each of the following substances its reported Relative phosphorylation (% of highest signal).

Query: // returns reported Relative phosphorylation (% of highest signal) for input MK01_198_210 (IMLNSKGYTKSID; UniProt P28482 198-210, looked up, fragment)
Result: -1.1 % of highest signal

Query: What do you get for ART_004_EAIYAAPFAKKKXC ?
Result: 8.3 % of highest signal

Query: What do you get for VGFR1_1162_1174 (VQQDGKDYIPINA; UniProt P17948 1162-1174, looked up, fragment) ?
Result: 4.4 % of highest signal

Query: What do you get for VGFR2_944_956 (RFRQGKDYVGAIP; UniProt P35968 944-956, looked up, fragment) ?
Result: 1.4 % of highest signal

Query: What do you get for VGFR2_1168_1180 (AQQDGKDYIVLPI; UniProt P35968 1168-1180, looked up, fragment) ?
Result: 9.5 % of highest signal

// for each substance in input: emit Relative phosphorylation (% of highest signal)
1. MBP_259_271 (FGYGGRASDYKSA; UniProt P02686 259-271, looked up, fragment)
2. VGFR1_1049_1061 (KNPDYVRKGDTRL; UniProt P17948 1049-1061, looked up, fragment)
3. VGFR1_1046_1058_Y1048F (DIFKNPDYVRKGD; UniProt P17948 1046-1058, looked up, variant Y1048F)
4. PERI_458_470 (QRSELDKSSAHSY; UniProt P41219 458-470, looked up, fragment)
5. STA5A_687_699 (LAKAVDGYVKPQI; UniProt P42229 687-699, looked up, fragment)
6. STAT6_634_646 (MGKDGRGYVPATI; UniProt P42226 634-646, looked up, fragment)
7. VGFR1_1320_1332_C1320K/C1321K (KKSPPPDYNSVVL; UniProt P17948 1320-1332, looked up, variant C1320K C1321K)
8. MBP_263_275 (GRASDYKSAHKGF; UniProt P02686 263-275, looked up, fragment)

Result:
-0.258 % of highest signal
-0.7 % of highest signal
-0.9 % of highest signal
-1.0 % of highest signal
-0.9 % of highest signal
-0.6 % of highest signal
4.5 % of highest signal
-0.5 % of highest signal

// for each substance in input: emit Relative phosphorylation (% of highest signal)
1. NPT2A_501_513 (AKALGKRTAKYRW; UniProt Q06495 501-513, looked up, fragment)
2. VGFR1_1235_1247 (ATSMFDDYQGDSS; UniProt P17948 1235-1247, looked up, fragment)
3. VINC_815_827 (KSFLDSGYRILGA; UniProt P18206 815-827, looked up, fragment)

Result:
1: 0.557 % of highest signal; 2: -0.074 % of highest signal; 3: 0.6 % of highest signal

###

Assay System: FES^S700C (Homo sapiens, UniProt P07332, S700C)
Assay Details: In vitro TR-FRET kinase assay
Format: biochemical
Design: human FES cDNA encoding residues 448–822 or human FER cDNA encoding residues 448–820 was amplified by PCR; made in house; host or cells: E. coli BL21(DE3), co-expressing YopH phosphatase
Applied Conditions: FES S700C; log[inhibitor] (M) = -6.52288; mean, n=3
Observed Property: Residual activity (%)
Lab note: write values as number then unit, every time.

Query: // returns reported Residual activity (%) for input C=CC(=O)Nc1ccccc1Nc1nc(Nc2ccccc2OC)ncc1Cl
Result: 69.3014%

// for each molecule in input: emit Residual activity (%)
1. COc1ccccc1Nc1ncc(Cl)c(Nc2ccccc2S(=O)(=O)C(C)C)n1
2. C=CC(=O)Nc1cccc(Nc2nc(Nc3ccccc3OC)ncc2Cl)c1
3. CCC(=O)Nc1ccccc1Nc1nc(Nc2ccccc2OC)ncc1Cl

Result:
1: 4.851%; 2: -0.4059%; 3: 101.29%
